Consider the following molecules; for each one, report its DR/DR AA.
- assay_method_text: Probe fluorescence ratio response to arachidonic acid relative to ADIFAB2
- Type: binding
- conditions: arachidonic acid; response relative to ADIFAB2
Give bare numbers.

Example molecules with recorded DR/DR AA:
36A, 72A (protein, listed as Rattus norvegicus, PEPTIDE (1)...(131) wild-type rat intestinal fatty acid binding protein) AFDGTWKVDRNENYEKFMEKMGINVVKRKLGAHDNAKLTITQEGNKFTVKESSNFRNIDVVFELGVDFAYSAADGTELTGTWTMEGNKLVGKFKRVDNGKELIAVREISGNELIQTYTYEGVEAKRIFKKE | 0.53
73T 72A 74F (protein, listed as Rattus norvegicus, PEPTIDE (1)...(131) wild-type rat intestinal fatty acid binding protein) AFDGTWKVDRNENYEKFMEKMGINVVKRKLGAHDNLKLTITQEGNKFTVKESSNFRNIDVVFELGVDFAYSATFGTELTGTWTMEGNKLVGKFKRVDNGKELIAVREISGNELIQTYTYEGVEAKRIFKKE | 0.939
14R 18L 73L 117D 72A (protein, listed as Rattus norvegicus, PEPTIDE (1)...(131) wild-type rat intestinal fatty acid binding protein) AFDGTWKVDRNENREKFLEKMGINVVKRKLGAHDNLKLTITQEGNKFTVKESSNFRNIDVVFELGVDFAYSALDGTELTGTWTMEGNKLVGKFKRVDNGKELIAVREISGNELIQTDTYEGVEAKRIFKKE | 1.029
21V, 72A (protein, listed as Rattus norvegicus, PEPTIDE (1)...(131) wild-type rat intestinal fatty acid binding protein) AFDGTWKVDRNENYEKFMEKVGINVVKRKLGAHDNLKLTITQEGNKFTVKESSNFRNIDVVFELGVDFAYSAADGTELTGTWTMEGNKLVGKFKRVDNGKELIAVREISGNELIQTYTYEGVEAKRIFKKE | 0.939
115Y1, 72A (protein, listed as Rattus norvegicus, PEPTIDE (1)...(131) wild-type rat intestinal fatty acid binding protein) AFDGTWKVDRNENYEKFMEKMGINVVKRKLGAHDNLKLTITQEGNKFTVKESSNFRNIDVVFELGVDFAYSAADGTELTGTWTMEGNKLVGKFKRVDNGKELIAVREISGNELIYTYTYEGVEAKRIFKKE | 1.42

Next, consider the following molecule.
Ask: I have this molecule here, 73F, 72A (protein, listed as Rattus norvegicus, PEPTIDE (1)...(131) wild-type rat intestinal fatty acid binding protein) AFDGTWKVDRNENYEKFMEKMGINVVKRKLGAHDNLKLTITQEGNKFTVKESSNFRNIDVVFELGVDFAYSAFDGTELTGTWTMEGNKLVGKFKRVDNGKELIAVREISGNELIQTYTYEGVEAKRIFKKE , and I need its recorded DR/DR AA.
Reply: 1.208
